molecular target: human GLP-1R receptor (Homo sapiens, UniProt P43220); construct: expressed in transfected cells; experiment: GLP-1R low expression cell assay (cAMP TR-FRET, CHO-K1_hGLP-1Rlow_clone10 cells); type: cell-based; conditions: maximum activation relative to control GLP-1 peptide agonist
Sequence (P43220 24-463): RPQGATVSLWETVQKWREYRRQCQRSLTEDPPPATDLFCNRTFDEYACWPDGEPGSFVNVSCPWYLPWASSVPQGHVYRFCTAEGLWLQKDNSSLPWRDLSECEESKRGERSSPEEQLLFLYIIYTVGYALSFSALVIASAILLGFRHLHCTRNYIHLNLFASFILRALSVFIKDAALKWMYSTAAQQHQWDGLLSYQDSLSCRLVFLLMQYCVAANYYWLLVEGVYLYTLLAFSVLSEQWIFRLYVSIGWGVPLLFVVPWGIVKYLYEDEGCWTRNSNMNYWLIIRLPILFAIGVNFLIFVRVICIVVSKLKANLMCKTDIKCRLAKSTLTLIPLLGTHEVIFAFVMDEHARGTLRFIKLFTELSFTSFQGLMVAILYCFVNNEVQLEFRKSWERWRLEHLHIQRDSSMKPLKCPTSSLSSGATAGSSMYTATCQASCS
Outcome measure: Emax

Some entries whose results are on file:
molecule="C[C@]1(c2ccc(Cl)cn2)Oc2cccc(C3CCN(Cc4nc5c(OC6COC6)cc(C(=O)O)cc5n4C[C@@H]4CCO4)CC3)c2O1 [Compound 72]" experimental_value="> 85%"
molecule="CCOc1cc(C(=O)O)cc2c1nc(CN1CCC(Oc3cccc(COc4ccc(Cl)cc4F)n3)CC1)n2C [Compound 256]" experimental_value="> 85%"
molecule="Cn1c(CN2CCC(c3cccc(OCc4ccc(C(F)(F)F)cc4F)n3)CC2)nc2c(OC(F)F)cc(C(=O)O)cc21 [Compound 223]" experimental_value="> 85%"
molecule="CCC(F)Oc1cc(C(=O)O)cc2c1nc(CN1CCC(c3cccc(OCc4ccc(Cl)cc4F)n3)CC1)n2C (stereo not drawn) [Compound 351]" experimental_value="> 85%"

Identify Emax associated with the molecule Cn1c(CN2CCC(c3cccc(OCc4ccc(Cl)cc4F)n3)CC2)nc2c(O)cc(C(=O)O)cc21 [Compound 307]
> 85%

Specify measured Emax for COCCn1c(CN2CCC(c3cccc(OCc4ccc(C#N)cc4F)n3)CC2)nc2c(OC(F)F)cc(C(=O)O)cc21 [Compound 106] .
> 85%

Tell us which Emax value is on record for Cn1c(CN2CCC(c3cccc4c3OC(c3ccc(Cl)cc3F)C=C4)CC2)nc2c(OC(F)F)cc(C(=O)O)cc21 (single isomer, unassigned) [Compound 175]
> 85%

Provide only the value of recorded Emax for Cn1c(CN2CCC(c3cc(OCc4ccc(Cl)cc4F)ccc3F)CC2)nc2c(OC(F)F)cc(C(=O)O)cc21 [Compound 167]
25 to 50%

Report measured Emax; entry is Cn1c(CN2CCC(c3cccc4c3O[C@H](c3ccc(Cl)cc3F)CO4)CC2)nc2c(OCCF)cc(C(=O)O)cc21 [Compound 333]
> 85%

Give a short answer stating reported Emax for O=C(O)c1ccc2nc(CN3CCC(c4cccc(OCc5ccc(Cl)cc5F)n4)CC3)[nH]c2c1O [Compound 204] .
> 85%

For the molecule Cn1c(CN2CCC(c3nc(OCc4ccc(Cl)cc4F)ncc3F)CC2)nc2c(OC(F)F)cc(C(=O)O)cc21 [Compound 375] , give its measured Emax value.
> 85%

Retrieve Emax measured for COc1cc(C(=O)O)cc2nc(CN3CCC(c4cccc(OCc5ccc(Cl)cc5F)n4)CC3)n(CF)c12 [Compound 192] and print it.
50 to 85%

Provide only the value of recorded Emax for Cn1c(CN2CCC(c3cccc(OCc4ccc(C(F)F)cc4F)n3)CC2)nc2c(OC(F)F)cc(C(=O)O)cc21 [Compound 201]
> 85%

Note Emax for the molecule shown: Cn1c(CN2CCC(c3cccc(OCc4ccc(Cl)cc4F)n3)CC2)nc2c(OC(F)CF)cc(C(=O)O)cc21 (single isomer, unassigned) [Compound 329]
> 85%

Look up and state reported Emax for Cn1c(CN2CCC(c3cccnc3NCc3ccc(Cl)cc3F)CC2)nc2c(OC(F)F)cc(C(=O)O)cc21 [Compound 239]
50 to 85%

For the molecule CCOc1cc(C(=O)O)cc2c1nc(CN1CCC(Oc3cccc(COc4ccc(C#N)cc4F)n3)CC1)n2C [Compound 290] , report Emax.
> 85%

Output Emax of COc1cc(C(=O)O)cc2c1nc(CN1CCC(c3cccc4c3O[C@@](C)(c3ccc(Cl)cn3)O4)CC1)n2C(C)C [Compound 86]
> 85%

Provide only the value of recorded Emax for Cn1c(CN2CCC(c3cccc(OCc4ccc(Cl)cc4F)n3)CC2)nc2c(OCCO)cc(C(=O)O)cc21 [Compound 343]
> 85%

Please indicate Emax recorded for Cn1c(CN2CCC(c3cccc(OCc4ccc(Cl)c5ccoc45)n3)CC2)nc2c(OC(F)F)cc(C(=O)O)cc21 [Compound 237]
> 85%

====

target: human GLP-1R receptor (Homo sapiens); construct: expressed in transfected cells; assay: GLP-1R low expression cell assay (cAMP TR-FRET, CHO-K1_hGLP-1Rlow_clone10 cells); type: cell-based; conditions: maximum activation relative to control GLP-1 peptide agonist
Listing of entries alongside the reported Emax.

Recorded results for 8 compounds are shown here.
smiles_code=CN(c1nc2c(OC(F)F)cc(C(=O)O)cc2n1C[C@@H]1CCO1)[C@H]1CC[C@H](c2cccc(OCc3ccc(C#N)cc3F)n2)CC1 experimental_value="> 85%"
smiles_code=COc1cc(-c2cc(=O)[nH]o2)cc2c1nc(CN1CCC(c3cccc(OCc4ccc(Cl)cc4F)n3)CC1)n2C[C@@H]1CCO1 experimental_value="50 to 85%"
smiles_code=Cn1c(CN2CCC(c3nccc(OCc4ccc(C#N)cc4F)n3)CC2)nc2c(OC(F)F)cc(C(=O)O)cc21 experimental_value="> 85%"
smiles_code=COc1cc(C(=O)O)cc2c1nc(CN1CCC(c3cccc4c3OC[C@H](c3ccc(Cl)cc3F)O4)CC1)n2C experimental_value="> 85%"
smiles_code=COc1c(F)c(C(=O)O)cc2nc(CN3CCC(c4cccc(OCc5ccc(Cl)cc5F)n4)CC3)n(C)c12 experimental_value="50 to 85%"
smiles_code=CCOc1cc(C(=O)O)cc2c1nc(CN1CCC(c3cccc4c3OC[C@@H](c3ccc(Cl)cc3F)O4)CC1)n2C experimental_value="> 85%"
smiles_code=Cn1c(CN2CCC(c3ccc4c(c3)N(Cc3ccc(Cl)cc3F)C(=O)CO4)CC2)nc2c(OC(F)F)cc(C(=O)O)cc21 experimental_value="< 25%"
smiles_code=COCCOCCOCCOCCOCCOc1cc(C(=O)O)cc2c1nc(CN1CCC(c3cccc4c3O[C@](C)(c3ccc(Cl)cn3)O4)CC1)n2Cc1cncs1 experimental_value="< 25%"

Recall the reported Emax of COc1cc(C(=O)O)cc2c1nc(N(C)[C@H]1CC[C@H](c3cccc4c3O[C@@](C)(c3ccc(Cl)cn3)O4)CC1)n2C[C@@H]1CCO1 when tested on human GLP-1R receptor (Homo sapiens).
> 85%

====

assay: Rat pharmacokinetics, oral dosing; type: in vivo, Sprague-Dawley rats; conditions: male, Sprague-Dawley, plasma, oral dosing at 3 mg/kg
bioavailability reference

Solved cases (2 shown):
compound=C[C@]1(c2ccc(Cl)cn2)Oc2cccc(C3CCN(Cc4nc5c(OC(F)F)cc(C(=O)O)cc5n4C[C@@H]4CCO4)CC3)c2O1 experimental_value="25 to 50%"
compound="Cn1c(CN2CCC(c3cccc4c3OC(c3ccc(Cl)cc3F)C=C4)CC2)nc2c(OC(F)F)cc(C(=O)O)cc21 (single isomer, unassigned)" experimental_value="25 to 50%"

Name the recorded bioavailability of the compound listed here: CCOc1cc(C(=O)O)cc2c1nc(CN1CCC(c3cccc(OCc4ccc(C#N)cc4F)n3)CC1)n2C
25 to 50%

Please supply the value of reported bioavailability for the item CC(F)(F)c1cc(C(=O)O)cc2c1nc(CN1CCC(c3cccc4c3O[C@](C)(c3ccc(Cl)cn3)O4)CC1)n2C[C@@H]1CCO1
25 to 50%

Please list bioavailability recorded for the compound COc1cc(C(=O)O)cc2c1nc(Cc1cc(F)c(-c3cccc(OCc4ccc(C#N)cc4F)n3)cc1F)n2C
50 to 85%

Check the records and state bioavailability for C[C@@]1(c2ccc(Cl)cn2)Oc2cccc(C3CCN(Cc4nc5c(OC6CC6)cc(C(=O)O)cc5n4Cc4cncs4)CC3)c2O1
< 25%

Item C[C@]1(c2ccc(Cl)cn2)Oc2cccc(C3CCN(Cc4nc5c(O)cc(C(=O)O)cc5n4Cc4cncs4)CC3)c2O1 : provide bioavailability
< 25%

Identify the reported bioavailability for the following entry. Cn1c(N(C)[C@H]2CC[C@H](c3cccc(OCc4ccc(C#N)cc4F)n3)CC2)nc2c(OC(F)F)cc(C(=O)O)cc21
25 to 50%

Input Cn1c(CN2CCC(c3cccc(OCc4ccc(Cl)cc4F)n3)CC2)nc2c(O)cc(C(=O)O)cc21 , output reported bioavailability.
25 to 50%

Consider the compound Cn1c(CN2CCC(c3cccc(OCc4ccc(C#N)cc4F)n3)CC2)nc2c(OC(F)F)cc(C(=O)O)cc21 . State its measured bioavailability.
50 to 85%

Give bioavailability for the following compound: Cn1c(CN2CCC(c3cccc(OCc4ccc(C#N)cc4F)c3)CC2)nc2c(OC(F)F)cc(C(=O)O)cc21
> 85%

Identify bioavailability associated with the compound Cn1c(CN2CCC(c3cccc(OCc4ccc(Cl)c5ccoc45)n3)CC2)nc2c(OC(F)F)cc(C(=O)O)cc21
50 to 85%

For CC(C)Oc1cc(C(=O)O)cc2c1nc(CN1CCC(c3cccc(OCc4ccc(C#N)cc4F)n3)CC1)n2Cc1cncs1 , write its bioavailability.
< 25%
